Data origin, for the record: patent US20230110188A1

Target: T1, human monomeric MuSK FLAG streptavidin (in house produced, batch 27-6-2019) (human, UniProt O15146 24-495)
T1 construct: also called full length MuSK; not shown: FLAG and streptavidin tags
T1 sequence: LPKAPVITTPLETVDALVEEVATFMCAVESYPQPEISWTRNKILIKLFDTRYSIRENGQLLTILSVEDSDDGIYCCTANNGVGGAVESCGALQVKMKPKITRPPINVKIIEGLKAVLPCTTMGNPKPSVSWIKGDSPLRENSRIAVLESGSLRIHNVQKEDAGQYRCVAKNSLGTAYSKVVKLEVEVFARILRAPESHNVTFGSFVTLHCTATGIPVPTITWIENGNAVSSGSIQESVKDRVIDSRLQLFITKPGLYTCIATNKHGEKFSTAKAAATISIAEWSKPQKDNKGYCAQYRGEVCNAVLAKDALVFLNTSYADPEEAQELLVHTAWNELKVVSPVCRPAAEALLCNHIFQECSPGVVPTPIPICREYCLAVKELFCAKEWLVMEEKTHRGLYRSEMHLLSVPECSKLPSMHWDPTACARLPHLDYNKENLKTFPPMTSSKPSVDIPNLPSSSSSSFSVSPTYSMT
Assay: epitope binning ELISA (coated anti-MuSK Fab, MuSK, IgG, anti-Fc HRP); competitor: 3B5wt
observation_type: OD 450 nm (OD)
Reply numerically in OD, unit not repeated.

Summary for this binder, 3F6c (antibody, human IgG1, kappa, L234A L235A, V domains shown) VH: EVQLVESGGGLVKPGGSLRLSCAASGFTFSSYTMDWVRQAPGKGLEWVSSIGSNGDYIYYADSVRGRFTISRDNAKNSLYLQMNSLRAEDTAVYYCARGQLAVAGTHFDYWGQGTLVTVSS VL: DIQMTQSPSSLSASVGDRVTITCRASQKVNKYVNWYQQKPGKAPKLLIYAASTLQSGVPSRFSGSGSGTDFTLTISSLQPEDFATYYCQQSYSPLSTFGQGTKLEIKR : OD 450 nm is 2.2
